Assignment: determine reported Dmax for the given compounds.
# assayedTarget: HiBit-KRAS^G12C (Homo sapiens, UniProt P01116, G12C)
# Sequence (P01116 1-186 isoform P01116-2 G12C limits assumed): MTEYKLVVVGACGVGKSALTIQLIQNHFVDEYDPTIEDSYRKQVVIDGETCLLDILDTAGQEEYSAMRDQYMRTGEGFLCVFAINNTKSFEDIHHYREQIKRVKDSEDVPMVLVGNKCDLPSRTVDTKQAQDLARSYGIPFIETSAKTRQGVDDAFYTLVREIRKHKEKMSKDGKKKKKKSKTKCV
# method: HiBit degradation assay in SW1573 HiBit-KRas^G12C cells
# Format: cell-based
# Design: expressed in transfected cells; host or cells: SW1573 (clone E6), modified pcDNA3.1 vector, TK promoter
# assayConditions: SW1573, read-out: KRas^G12C-HiBiT (SW1573; 0.5% DMSO) Dmax**, SW1573 HiBit-KRas^G12C, 0.5% DMSO, 24 hours

// query Look up Dmax of C=CC(=O)N1CCN(c2nc(OCCN3CCC(CN(C)CC(=O)N[C@H](C(=O)N4C[C@H](O)C[C@H]4C(=O)N[C@@H](C)c4ccc(-c5scnc5C)cc4)C(C)(C)C)CC3)nc3c(F)c(-c4cc(O)cc5ccccc45)c(Cl)cc23)C[C@@H]1CC#N and report it.
// result 35 to 70%

// query Look up Dmax of C=CC(=O)N1CCN(c2nc(O[C@@H]3CCC[C@H]3N3CCC(COCC(=O)N[C@H](C(=O)N4C[C@H](O)C[C@H]4C(=O)N[C@@H](C)c4ccc(-c5scnc5C)cc4)C(C)(C)C)CC3)nc3c(F)c(-c4cc(O)cc5ccccc45)c(Cl)cc23)CC1 and report it.
// result 35 to 70%

// query Look up Dmax of C=CC(=O)N1CCN(c2nc(O[C@H](C)CN3CC(OC4CCN(CC(=O)N[C@H](C(=O)N5C[C@H](O)C[C@H]5C(=O)N[C@@H](C)c5ccc(-c6scnc6C)cc5)C(C)(C)C)CC4)C3)nc3c(F)c(-c4cc(O)cc5ccccc45)c(Cl)cc23)CC1 and report it.
// result 35 to 70%

// query Look up Dmax of C=CC(=O)N1CCN(c2nc(OCCN3CCC(F)(CN(C)CC(=O)N[C@H](C(=O)N4C[C@H](O)C[C@H]4C(=O)N[C@@H](C)c4ccc(-c5scnc5C)cc4)C(C)(C)C)CC3)nc3c(F)c(-c4cc(O)cc5ccccc45)c(Cl)cc23)C[C@@H]1CC#N and report it.
// result 35 to 70%

---

Assignment: determine reported Dmax for the given molecules.
# assayedTarget: HiBit-KRAS^G12C (Homo sapiens, UniProt P01116, G12C)
# method: HiBit degradation assay in SW1573 HiBit-KRas^G12C cells
# Type: cell-based
# Set-up: expressed in transfected cells; host or cells: SW1573 (clone E6), modified pcDNA3.1 vector, TK promoter
# assayConditions: SW1573, SW1573 HiBit-KRas^G12C, 0.5% DMSO, 24 hours; read-out: KRas^G12C-HiBiT (SW1573; 0.5% DMSO) Dmax**

// query Look up Dmax of C=CC(=O)N1CCN(c2nc(OCCN3CCC(CN(C)c4cc([C@H](C(=O)N5C[C@H](O)C[C@H]5C(=O)N[C@@H](C)c5ccc(-c6scnc6C)cc5)C(C)C)on4)CC3)nc3c(F)c(-c4cc(O)cc5ccccc45)c(Cl)cc23)C[C@@H]1CC#N and report it.
// result > 70%

// query Look up Dmax of C=CC(=O)N1CCN(c2nc(OCCN3CCC(OCCOCCOCC(=O)N[C@H](C(=O)N4C[C@H](O)C[C@H]4C(=O)N[C@@H](C)c4ccc(-c5scnc5C)cc4)C(C)(C)C)CC3)nc3c(F)c(-c4cc(O)cc5ccccc45)c(Cl)cc23)CC1 and report it.
// result 35 to 70%

---

# assayedTarget: HiBit-KRAS^G12C (Homo sapiens, UniProt P01116, G12C)
# method: HiBit degradation assay in SW1573 HiBit-KRas^G12C cells
# Type: cell-based
# Parameters: expressed in transfected cells; host or cells: SW1573 (clone E6), modified pcDNA3.1 vector, TK promoter
# assayConditions: SW1573, read-out: KRas^G12C-HiBit (SW1573; 0.1% DMSO) Dmax**, SW1573 HiBit-KRas^G12C, 0.1% DMSO, 24 hours
Assignment: determine reported Dmax for the given compounds.

// query Look up Dmax of C=CC(=O)N1CCN(c2nc(O[C@H](C)CN3CC(OC4CCN(CC(=O)N[C@H](C(=O)N5C[C@H](O)C[C@H]5C(=O)N[C@@H](C)c5ccc(-c6scnc6C)cc5)C(C)(C)C)CC4)C3)nc3c(F)c(-c4cc(O)cc5ccccc45)c(Cl)cc23)CC1 and report it.
// result 35 to 70%

// query Look up Dmax of C=CC(=O)N1CCN(c2nc(O[C@H](C)CN3CCC(C4CCN(CC(=O)N[C@H](C(=O)N5C[C@H](O)C[C@H]5C(=O)N[C@@H](C)c5ccc(-c6scnc6C)cc5)C(C)(C)C)CC4)CC3)nc3c(F)c(-c4cc(O)cc5ccccc45)c(Cl)cc23)CC1 and report it.
// result 35 to 70%

// query Look up Dmax of C=C(F)C(=O)N1CCN(c2nc(OCCN3CCC(COCC(=O)N[C@H](C(=O)N4C[C@H](O)C[C@H]4C(=O)N[C@@H](C)c4ccc(-c5scnc5C)cc4)C(C)(C)C)CC3)nc3c(F)c(-c4cc(O)cc5ccccc45)c(Cl)cc23)C[C@@H]1CC#N and report it.
// result > 70%

// query Look up Dmax of C=CC(=O)N1CCN(c2nc(O[C@H](C)CN3CCN(CCCN4CCN(CC(=O)N[C@H](C(=O)N5C[C@H](O)C[C@H]5C(=O)N[C@@H](C)c5ccc(-c6scnc6C)cc5)C(C)(C)C)CC4)CC3)nc3c(F)c(-c4cc(O)cc5ccccc45)c(Cl)cc23)CC1 and report it.
// result < 35%

---

Assignment: determine reported DC50 for the given compounds.
# assayedTarget: HiBit-KRAS^G12C (Homo sapiens, UniProt P01116, G12C)
# method: HiBit degradation assay in MiaPaCa-2 HiBit-KRas^G12C cells
# Format: cell-based
# assayConditions: read-out: KRas^G12C-HiBiT (MiaPaCa; 0.5% DMSO) IC50; MiaPaCa-2 HiBit-KRas^G12C cells; 0.5% DMSO; 24 hours

// query Look up DC50 of C=CC(=O)N1CCN(c2nc(OCCN3CCC(COCC(=O)N[C@H](C(=O)N4C[C@H](O)C[C@H]4C(=O)N[C@@H](C)c4ccc(-c5scnc5C)cc4)C(C)(C)C)CC3)nc3c(F)c(-c4nc(NC)cc5ccccc45)c(Cl)cc23)C[C@@H]1CC#N [Compound 99] and report it.
// result > 1000 nM

// query Look up DC50 of C=C(F)C(=O)N1CCN(c2nc(OCCN3CCC4(CC3)CN(c3cc([C@@H](C(=O)N5C[C@H](O)C[C@H]5C(=O)N[C@@H](C)c5ccc(-c6scnc6C)cc5)C(C)C)on3)C4)nc3c(F)c(-c4cc(O)cc5ccccc45)c(Cl)cc23)C[C@@H]1CC#N (atropisomer, axis not shown) [Compound 113] and report it.
// result > 1000 nM

// query Look up DC50 of C=CC(=O)N1CCN(c2nc(OCCN3CCC(COc4cc([C@H](C(=O)N5C[C@H](O)C[C@H]5C(=O)N[C@@H](C)c5ccc(-c6scnc6C)cc5)C(C)C)on4)CC3)nc3c(F)c(-c4cc(O)cc5ccccc45)c(Cl)cc23)C[C@@H]1CC#N [Compound 169] and report it.
// result 100 to 1000 nM

// query Look up DC50 of C=CC(=O)N1CCN(c2nc(OCCN3CCC4(CC3)CN(c3cc([C@H](C(=O)N5C[C@H](O)C[C@H]5C(=O)N[C@@H](C)c5ccc(-c6scnc6C)cc5)C(C)C)on3)C4)nc3c(F)c(-c4cc(O)cc5ccccc45)c(Cl)cc23)C[C@@H]1CC#N (atropisomer, axis not shown) [Compound 107] and report it.
// result < 100 nM

// query Look up DC50 of C=C(F)C(=O)N1CCN(c2nc(OCCN3CCC4(CC3)CN(c3cc([C@H](C(=O)N5C[C@H](O)C[C@H]5C(=O)N[C@@H](C)c5ccc(-c6ccnn6C)cc5)C(C)C)on3)C4)nc3c(F)c(-c4cc(O)cc5ccccc45)c(Cl)cc23)C[C@@H]1CC#N (atropisomer, axis not shown) [Compound 112] and report it.
// result 100 to 1000 nM

// query Look up DC50 of C=C(F)C(=O)N1CCN(c2nc(OCCN3CCC(F)(COc4cc([C@@H](C(=O)N5C[C@H](O)C[C@H]5C(=O)N[C@@H](C)c5ccc(-c6ccnn6C)cc5)C(C)C)on4)CC3)nc3c(F)c(-c4cc(O)cc5ccccc45)c(Cl)cc23)C[C@@H]1CC#N (atropisomer, axis not shown) [Compound 118] and report it.
// result > 1000 nM

// query Look up DC50 of C=CC(=O)N1CCN(c2nc(OCCN3CCC(COCC(=O)N[C@H](C(=O)N4C[C@H](O)C[C@H]4C(=O)N[C@@H](C)c4ccc(-c5ccnn5C)cc4)C(C)(C)C)CC3)nc3c(F)c(-c4cc(O)cc5ccccc45)c(Cl)cc23)C[C@@H]1CC#N (atropisomer, axis not shown) [Compound 136] and report it.
// result 100 to 1000 nM

Hey, just so you know, these numbers are from patent US20220370416A1.
